- assay_target: UniProt O60502
- Sequence (O60502 whole entry): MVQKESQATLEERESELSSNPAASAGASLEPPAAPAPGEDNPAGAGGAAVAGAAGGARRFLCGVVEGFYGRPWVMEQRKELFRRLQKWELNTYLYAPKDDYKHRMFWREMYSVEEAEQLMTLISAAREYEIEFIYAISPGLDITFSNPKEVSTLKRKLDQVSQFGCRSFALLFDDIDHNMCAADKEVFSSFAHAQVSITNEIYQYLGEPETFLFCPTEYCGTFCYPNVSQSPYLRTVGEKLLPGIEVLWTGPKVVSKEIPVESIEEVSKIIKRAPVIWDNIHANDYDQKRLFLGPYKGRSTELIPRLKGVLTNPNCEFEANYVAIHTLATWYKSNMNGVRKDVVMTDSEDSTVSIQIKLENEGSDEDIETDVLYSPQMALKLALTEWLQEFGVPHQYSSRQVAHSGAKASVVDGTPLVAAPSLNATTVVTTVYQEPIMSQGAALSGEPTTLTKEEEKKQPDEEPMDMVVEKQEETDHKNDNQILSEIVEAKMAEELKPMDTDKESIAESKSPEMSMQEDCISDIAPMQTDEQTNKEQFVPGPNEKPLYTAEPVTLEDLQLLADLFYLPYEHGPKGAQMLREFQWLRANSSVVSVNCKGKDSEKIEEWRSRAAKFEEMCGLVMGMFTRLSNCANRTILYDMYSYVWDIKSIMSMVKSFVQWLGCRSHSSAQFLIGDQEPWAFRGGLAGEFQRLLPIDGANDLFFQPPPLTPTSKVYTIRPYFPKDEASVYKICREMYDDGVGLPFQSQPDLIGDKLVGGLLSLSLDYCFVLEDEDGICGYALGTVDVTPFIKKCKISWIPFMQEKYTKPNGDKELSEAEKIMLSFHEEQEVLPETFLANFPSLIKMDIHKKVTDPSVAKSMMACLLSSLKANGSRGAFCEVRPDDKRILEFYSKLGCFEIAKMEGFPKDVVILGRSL
- measurement_description: Human O-GlcNAcase enzyme inhibition assay;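 also: reactions contained 20 nM His-tagged hOGA enzyme with 10 µM FL-GlcNAc substrate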
- Format: biochemical
- study_conditions: OGA enzyme inhibition assay; FL-GlcNAc substrate, pH 6.5; activity classes defined in μM; read-out: OGA IC50
Recorded IC50, one value per entry.

Examples with answers:
>>> observed_value("CC(c1ccc2nccnc2c1)N1CCN(c2ncc(C3=CCCC3)cn2)CC1 (racemic) [Example 94]")
"0.2 to 1 µM"
>>> observed_value("CC(c1ccc2c(c1)OCC2)N1CCN(c2ccc(S(C)(=O)=O)cn2)CC1 (racemic) [Example 71]")
"< 0.05 µM"
>>> observed_value("CC(c1ccc2nccnc2c1)N1CCN(c2ccc(C3(O)CCCC3)cn2)CC1 (racemic) [Example 61]")
"0.05 to 0.2 µM"

Looking for the measured IC50 of CC(c1ccc2nccnc2c1)N1CCN(c2cccc(C(=O)N(C)C)n2)CC1 (racemic) [Example 69] , can you help?
0.2 to 1 µM

Looking for the measured IC50 of COC(=O)c1ccc(N2CCN(C(C)c3ccc4c(c3)OCC4)CC2)nc1 (racemic) [Example 62] , can you help?
< 0.05 µM

Looking for the measured IC50 of CC(O)c1nnc(N2CCN(C(C)c3ccc4c(c3)OCC4)CC2)s1 (racemic) [Example 114] , can you help?
< 0.05 µM

Looking for the measured IC50 of CC(c1ccc2c(c1)OCC2)N1CCN(c2nnc(CN(C)C)s2)CC1 (racemic) [Example 123] , can you help?
< 0.05 µM

Looking for the measured IC50 of CC(c1ccc2c(c1)OCC2)N1CCN(c2nnc(CN)s2)CC1 (racemic) [Example 124] , can you help?
< 0.05 µM

Looking for the measured IC50 of CC(=O)N1CCc2nc(N3CCN(C(C)c4ccc5nccnc5c4)CC3)sc2C1 (racemic) [Example 11] , can you help?
0.05 to 0.2 µM

Looking for the measured IC50 of CC(c1ccc2c(c1)OCC2)N1CCN(c2nc3c(s2)CNCC3)CC1 (single isomer, unassigned) [Example 17] , can you help?
< 0.05 µM

Looking for the measured IC50 of CC(c1ccc2c(c1)OCC2)N1CCN(c2ccc(C(O)C(F)(F)F)cn2)CC1 (racemic) [Example 50] , can you help?
< 0.05 µM

Looking for the measured IC50 of CC(c1ccc2scnc2c1)N1CCN(c2ncc(CO)cn2)CC1 (racemic) [Example 73] , can you help?
< 0.05 µM

Looking for the measured IC50 of CC(=O)NCc1nnc(N2CCN(C(C)c3ccc4c(c3)OCC4)CC2)s1 (racemic) [Example 110] , can you help?
< 0.05 µM

Looking for the measured IC50 of CC(C)C(O)c1ccc(N2CCN(C(C)c3ccc4c(c3)OCC4)CC2)nc1 (racemic) [Example 49] , can you help?
< 0.05 µM

Looking for the measured IC50 of CC(c1ccc2c(c1)OCC2)N1CCC(n2cc(C(F)(F)F)cn2)CC1 (racemic) [Example 29] , can you help?
0.2 to 1 µM

Looking for the measured IC50 of CC(=O)Nc1nnc(N2CCN(C(C)c3ccc4c(c3)OCC4)CC2)s1 (single isomer, unassigned) [Example 108] , can you help?
1 to 10 µM
